- TEST_PROTOCOL: Inhibition of Trypanosoma cruzi apoenzyme form of PFK
ENDPOINT_LABEL: pIC50

Example cases with answers are listed next.
INPUT_SMILES | pIC50
CC(C)(C)c1ccc(S(=O)(=O)n2cnc3ccccc32)cc1 | 3.48
Cc1cc(NS(=O)(=O)c2ccc(N(C)C(=O)Cc3ccc(Cl)c(Cl)c3)cc2)no1 | 3.16

a: O=C(Cc1ccc(Cl)c(Cl)c1)Nc1ccc(S(=O)(=O)Nc2nccs2)cc1
b: O=C(Cc1ccc(Cl)c(Cl)c1)Nc1ccc(S(=O)(=O)Nc2cccc(O)c2)cc1
Could you check which of a and b has a smaller value for pIC50? State your choice using its label.
a

* * *

- TEST_PROTOCOL: Inhibition of Trypanosoma cruzi apoenzyme form of PFK
ENDPOINT_LABEL: pIC50

A: O=S(=O)(c1ccccc1)n1cnc2ccccc21
B: O=C(Cc1ccc(Cl)c(Cl)c1)Nc1ccc(S(=O)(=O)Nc2nncs2)cc1
Could you check which of A and B has a smaller value for pIC50? State your choice using its label.
B
(B: 1.72, A: 3.95)

* * *

- TEST_PROTOCOL: Inhibition of Trypanosoma cruzi apoenzyme form of PFK
ENDPOINT_LABEL: pIC50

INPUT_SMILES | pIC50
O=S(=O)(c1cccc(C(F)(F)F)c1)n1cnc2ccccc21 | 4.14

I: Cc1cc(C)c(C)c(S(=O)(=O)n2cnc3ccccc32)c1C
II: O=C(Cc1ccc(F)c(Cl)c1)Nc1ccc(S(=O)(=O)Nc2nccs2)cc1
Parameter check: reported pIC50 is higher for which label, I or II ? State your choice using its label.
I
(I: 3.34, II: 2.07)

a: Cc1cc(NS(=O)(=O)c2ccc(NC(=O)Cc3ccc(Cl)c(Cl)c3)cc2)n(C)n1
b: Cc1cc(NS(=O)(=O)c2ccc(NC(=O)C(C)(C)c3ccc(Cl)c(Cl)c3)cc2)no1
c: O=C(Cc1ccc(Cl)c(Cl)c1)Nc1ccc(S(=O)(=O)Nc2ccon2)cc1
Please list these in order of increasing pIC50. Thank you! Put the labels in the requested order and list them out.
c, a, b

1: Cc1cc(NS(=O)(=O)c2ccc(NC(=O)CCc3ccc(Cl)c(Cl)c3)cc2)no1
2: Cc1cc(NS(=O)(=O)c2ccc(NC(=O)Cc3ccc(Cl)c(Cl)c3)cc2)no1
Parameter check: reported pIC50 is higher for which label, 1 or 2 ? State your choice using its label.
1
(1: 4.06, 2: 2.36)

I: O=C(Cc1ccc(Cl)c(Cl)c1)Nc1ccc(S(=O)(=O)Nc2cc[nH]n2)cc1
II: Cc1cc(NS(=O)(=O)c2ccc(NC(=O)Cc3ccc(Cl)cc3Cl)cc2)no1
Could you check which of I and II has a smaller value for pIC50? State your choice using its label.
I

I: Cc1cc(NS(=O)(=O)c2ccc(NC(=O)Cc3ccc(Cl)c(F)c3)cc2)no1
II: CC(=O)c1ccc(S(=O)(=O)n2cnc3ccccc32)cc1
Parameter check: reported pIC50 is higher for which label, I or II ? State your choice using its label.
II
(II: 4.43, I: 2.81)

* * *

- TEST_PROTOCOL: Inhibition of Trypanosoma cruzi apoenzyme form of PFK
ENDPOINT_LABEL: pIC50

INPUT_SMILES | RESULT_NUMBER
O=[N+]([O-])c1ccc(S(=O)(=O)n2cnc3ccccc32)cc1 | 3.41
COc1ccc(CC(=O)Nc2ccc(S(=O)(=O)Nc3cc(C)on3)cc2)cc1C | 4.31

1: O=S(=O)(c1ccc(Cl)cc1)n1cnc2ccccc21
2: Cc1cc(NS(=O)(=O)c2ccc(NC(=O)Cc3ccc(F)c(Cl)c3)cc2)no1
Could you check which of 1 and 2 has a smaller value for pIC50? State your choice using its label.
2

Taken from ChEMBL document CHEMBL4480385.
